Here, each record is paired with measured melting point data.
readoutType: melting point

> print(dat)
                                smilesstring    readouttype                result
 1  CN1CCC(N2CCN(C(=O)[C@@H](CC(N)=O)NC(=O)c3cc4ccc(Cl)cc4s3)CC2)CC1.Cl  melting point  219 to 223 °C (dec.)
 2  CN1CCC(C2CCN(C(=O)[C@@H](Cc3cn(C)cn3)NC(=O)c3ccc4cc[nH]c4c3)CC2)CC1.Cl  melting point  179 to 185 °C (dec.)
 3  CN1CCC(N2CCN(C(=O)[C@@H](Cc3ccncc3)NC(=O)c3ccc4cc[nH]c4c3)CC2)CC1.Cl  melting point  228 to 235 °C (dec.)
 4  CN1CCC(C2CCN(C(=O)[C@@H](CC3CCCCC3)NC(=O)c3ccc4cc[nH]c4c3)CC2)CC1.Cl  melting point  162 to 172 °C (dec.)
 5  CN1CCC(N2CCN(C(=O)[C@@H](CCC(=O)O)NC(=O)c3cc4cc(Cl)ccc4[nH]3)CC2)CC1.Cl  melting point  222 to 225 °C (dec.)
 6  CN1CCC(N2CCN(C(=O)[C@@H](Cc3ccncc3)NC(=O)c3cc4cc(Cl)ccc4[nH]3)CC2)CC1.Cl  melting point  238 to 242 °C (dec.)
 7  CN1CCC(C[C@@H](NC(=O)c2cc3cc(Cl)ccc3[nH]2)C(=O)N2CCN(C3CCN(C)CC3)CC2)CC1.Cl  melting point  205 to 210 °C (dec.)
 8  CN1CCC(N2CCN(C(=O)[C@@H](CCC(=O)O)NC(=O)c3cc4ccc(Cl)cc4s3)CC2)CC1.Cl  melting point  185 to 190 °C (dec.)
 9  CN1CCC(N2CCN(C(=O)[C@@H](Cc3ccncc3)NC(=O)c3cc4ccc(Cl)cc4s3)CC2)CC1.Cl  melting point  213 to 217 °C (dec.)
10  CN1CCC(C2CCN(C(=O)[C@@H](Cc3cccnc3)NC(=O)c3ccc4cc[nH]c4c3)CC2)CC1.Cl  melting point  177 to 182 °C (dec.)
11  CN1CCC(N2CCN(C(=O)[C@@H](Cc3ccccn3)NC(=O)c3ccc4cc[nH]c4c3)CC2)CC1.Cl  melting point  232 to 235 °C (dec.)
12  CN1CCC(N2CCN(C(=O)[C@@H](Cc3ccccn3)NC(=O)c3cc4ccc(Cl)cc4s3)CC2)CC1.Cl  melting point  219 to 223 °C (dec.)
13  CN1CCC(C2CCN(C(=O)[C@@H](Cc3ccccn3)NC(=O)c3ccc4cc[nH]c4c3)CC2)CC1.Cl  melting point  175 to 179 °C (dec.)
14  CN1CCC(N2CCN(C(=O)[C@@H](CC(N)=O)NC(=O)c3ccc4cc[nH]c4c3)CC2)CC1.Cl  melting point  215 to 219 °C (dec.)
15  CN1CCC(C2CCN(C(=O)[C@@H](Cc3ccncc3)NC(=O)c3ccc4cc[nH]c4c3)CC2)CC1.Cl  melting point  183 to 186 °C (dec.)
16  CN1CCC(C[C@@H](NC(=O)c2ccc3cc[nH]c3c2)C(=O)N2CCN(C3CCN(C)CC3)CC2)CC1.Cl  melting point  190 to 193 °C (dec.)
17  CN1CCC(N2CCN(C(=O)[C@@H](CC(N)=O)NC(=O)c3cc4cc(Cl)ccc4[nH]3)CC2)CC1.Cl  melting point  235 to 240 °C (dec.)
18  CN1CCC(C2CCN(C(=O)[C@H](CC3CCOCC3)NC(=O)c3ccc4cc[nH]c4c3)CC2)CC1.Cl  melting point  162 to 178 °C (dec.)
19  CN1CCC(N2CCN(C(=O)[C@@H](CCC(=O)O)NC(=O)c3ccc4cc[nH]c4c3)CC2)CC1.Cl  melting point  215 to 218 °C (dec.)
20  CN1CCC(N2CCN(C(=O)[C@@H](Cc3ccccn3)NC(=O)c3cc4cc(Cl)ccc4[nH]3)CC2)CC1.Cl  melting point  210 to 214 °C (dec.)
21  CN1CCC(C[C@@H](NC(=O)c2cc3ccc(Cl)cc3s2)C(=O)N2CCN(C3CCN(C)CC3)CC2)CC1.Cl  melting point  220 to 223 °C (dec.)
